testedTarget: PI3Kα (Homo sapiens (Human))
Sequence (P42336 whole entry): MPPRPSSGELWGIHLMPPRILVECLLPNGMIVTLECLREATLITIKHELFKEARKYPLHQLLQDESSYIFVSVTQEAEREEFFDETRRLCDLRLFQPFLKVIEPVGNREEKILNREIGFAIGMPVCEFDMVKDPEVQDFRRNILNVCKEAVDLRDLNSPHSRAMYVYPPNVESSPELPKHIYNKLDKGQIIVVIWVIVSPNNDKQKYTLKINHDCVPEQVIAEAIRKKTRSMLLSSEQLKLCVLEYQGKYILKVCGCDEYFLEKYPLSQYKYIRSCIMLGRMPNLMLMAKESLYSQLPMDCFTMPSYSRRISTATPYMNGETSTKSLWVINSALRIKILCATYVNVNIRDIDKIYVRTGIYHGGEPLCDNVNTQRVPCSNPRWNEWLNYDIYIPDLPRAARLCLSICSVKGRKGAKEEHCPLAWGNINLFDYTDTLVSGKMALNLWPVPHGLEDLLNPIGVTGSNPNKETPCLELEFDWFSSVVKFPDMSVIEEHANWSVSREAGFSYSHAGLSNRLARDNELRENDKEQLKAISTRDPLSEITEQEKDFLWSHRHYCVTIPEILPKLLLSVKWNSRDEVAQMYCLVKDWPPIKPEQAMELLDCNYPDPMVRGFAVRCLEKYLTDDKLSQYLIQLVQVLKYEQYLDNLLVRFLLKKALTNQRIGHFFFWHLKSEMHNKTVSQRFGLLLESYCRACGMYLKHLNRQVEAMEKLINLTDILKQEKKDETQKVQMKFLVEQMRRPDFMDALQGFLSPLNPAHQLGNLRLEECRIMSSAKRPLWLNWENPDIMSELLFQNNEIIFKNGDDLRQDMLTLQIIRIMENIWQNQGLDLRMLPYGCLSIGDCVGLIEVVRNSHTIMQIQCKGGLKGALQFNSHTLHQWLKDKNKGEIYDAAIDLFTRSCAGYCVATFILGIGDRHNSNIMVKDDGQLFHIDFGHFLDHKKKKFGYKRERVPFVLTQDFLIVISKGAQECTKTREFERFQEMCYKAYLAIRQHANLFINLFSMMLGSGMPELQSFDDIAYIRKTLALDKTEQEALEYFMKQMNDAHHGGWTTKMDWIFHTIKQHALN
Sequence (P27986 whole entry partner): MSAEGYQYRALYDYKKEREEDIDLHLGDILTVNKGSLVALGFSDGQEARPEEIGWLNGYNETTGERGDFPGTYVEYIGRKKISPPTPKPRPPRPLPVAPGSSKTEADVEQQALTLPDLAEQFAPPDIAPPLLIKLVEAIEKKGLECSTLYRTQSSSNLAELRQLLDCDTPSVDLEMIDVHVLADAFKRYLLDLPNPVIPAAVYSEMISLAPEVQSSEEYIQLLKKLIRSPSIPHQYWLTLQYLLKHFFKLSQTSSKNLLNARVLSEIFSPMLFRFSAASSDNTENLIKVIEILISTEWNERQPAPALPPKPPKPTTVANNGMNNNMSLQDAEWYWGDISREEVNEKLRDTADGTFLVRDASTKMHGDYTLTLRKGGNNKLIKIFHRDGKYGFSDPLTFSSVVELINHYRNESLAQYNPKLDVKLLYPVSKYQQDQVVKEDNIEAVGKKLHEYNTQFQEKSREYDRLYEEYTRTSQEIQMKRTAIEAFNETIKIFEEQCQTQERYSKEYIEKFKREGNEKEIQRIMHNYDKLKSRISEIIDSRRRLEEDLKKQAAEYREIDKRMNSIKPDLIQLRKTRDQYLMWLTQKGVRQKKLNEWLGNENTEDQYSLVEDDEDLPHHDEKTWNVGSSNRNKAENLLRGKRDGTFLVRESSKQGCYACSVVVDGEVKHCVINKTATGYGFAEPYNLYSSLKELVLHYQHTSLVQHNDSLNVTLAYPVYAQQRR
runDescription: Inhibition of PI3Kα efficacy assay (ADP-Glo kinase assay)
Assay type: biochemical
experimentalSetup: Table 4; read-out: PI3Kα inhibitory activity (IC50)
Simple rule here: IC50 less than 0.7 nM is 1 (yes), otherwise 0 (no).

>  <compound>
COC(=O)c1ncc(-c2ccc3ncnc(N4CCN(C(=O)/C=C/C(C)=O)CC4)c3c2)cc1NS(=O)(=O)c1ccc(F)cc1F [Example 181]

>  <cat>
0 (no)

$$$$
>  <compound>
CC(=O)/C=C/C(=O)N1CCN(c2ncnc3ccc(-c4cnc(OCC(F)(F)F)c(NS(=O)(=O)c5ccc(F)cc5F)c4)cc23)CC1 [Example 159]

>  <cat>
0 (no)

$$$$
>  <compound>
CC(=O)/C=C/C(=O)N1CCN(c2ncnc3ccc(-c4cnc(OC(F)(F)F)c(NS(=O)(=O)c5ccc(F)cc5F)c4)cc23)CC1 [Example 194]

>  <cat>
0 (no)

$$$$

Input line: Check if IC50 falls below 0.7 nM for COc1ncc(-c2ccc3ncnc(C4CCN(C(=O)/C=C/C(C)=O)CC4)c3c2)cc1NS(=O)(=O)c1c(F)cccc1F [Example 205] .
Output line: 0 (no)

Input line: # TODO verify IC50 < 0.7 nM strictly for this compound: COc1ncc(-c2ccc3ncnc(N4CCC5(CC4)CN(C(=O)/C=C/C(C)=O)C5)c3c2)cc1NS(=O)(=O)c1c(F)cncc1F [Example 163]
Output line: 1 (yes)

Input line: Does COc1ncc(-c2ccc3ncnc(N4CCN(C(=O)/C=C/C(C)=O)C[C@@H]4C)c3c2)cc1NS(=O)(=O)c1c(F)cc(F)cc1F [Example 154] have IC50 strictly under 0.7 nM?
Output line: 1 (yes)
